Test system: E34 (patient-derived glioblastoma stem cells of proneural subtype)
Experiment: phenotypic distance (Euclidean, principal components) from DMSO controls (arbitrary units); higher = stronger morphological change;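 also: cell Painting imaging in 384-well plates, CellProfiler features reduced to at least 20 principal components, Euclidean distance versus same-plate DMSO vehicle wells (0.1% v/v), median over six images per well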
Conditions: 3000 nM; exposure time: 72 h
Quick reference: phenotypic distance of the listed items.
Field format: numeric only.

C/C=C1\NC(=O)[C@H]2CSSCC/C=C/[C@H](CC(=O)N[C@H](C(C)C)C(=O)N2)OC(=O)[C@H](C(C)C)NC1=O: 7.26
Cc1ccc(S(=O)(=O)/C=C/C#N)cc1: 9.42

Exam item: Enter reported phenotypic distance observed with E34 for Oc1ccc(OCc2ccccc2)cc1
Marked response: 0.624

Exam item: Enter reported phenotypic distance observed with E34 for CC(C)C[C@H](NC(=O)CNC(=O)c1cc(Cl)ccc1Cl)B1OC(=O)C(CC(=O)O)(CC(=O)O)O1
Marked response: 10.5

###

Test system: E13 (patient-derived glioblastoma stem cells of classical subtype)
Test: phenotypic distance (Euclidean, principal components) from DMSO controls (arbitrary units); higher = stronger morphological change
Conditions: 111.1 nM; exposure time: 72 h
Structures can show the parent of a compound that is named as a salt.
Quick reference: phenotypic distance of the listed items.
Field format: numeric only.

Nc1ccn([C@@H]2O[C@H](CO)[C@@H](O)[C@@H]2O)c(=O)n1: 2.69
C[C@H]1O[C@@H](O[C@H]2[C@@H](O)C[C@H](O[C@H]3[C@@H](O)C[C@H](O[C@H]4CC[C@@]5(C)[C@H](CC[C@@H]6[C@@H]5C[C@@H](O)[C@]5(C)[C@@H](C7=CC(=O)OC7)CC[C@]65O)C4)O[C@@H]3C)O[C@@H]2C)C[C@H](O)[C@@H]1O: 5.57
C=C[C@H]1CN2CC[C@H]1C[C@@H]2[C@@H](O)c1ccnc2ccc(OC)cc12 [Quinidine hydrochloride monohydrate]: 0.43
CC[C@@]1(O)C(=O)OCc2c1cc1n(c2=O)Cc2cc3c(CN(C)C)c(O)ccc3nc2-1: 6.68
Cc1cc(C(C)(C)CC(C)(C)C)ccc1OCCOCC[N+](C)(C)Cc1ccccc1 [Methyl benzethonium chloride]: 0.7
CCC1=C[C@@H]2CN(C1)Cc1c([nH]c3ccccc13)[C@@](C(=O)OC)(c1cc3c(cc1OC)N(C)[C@H]1[C@@](O)(C(=O)OC)[C@H](OC(C)=O)[C@]4(CC)C=CCN5CC[C@]31[C@@H]54)C2 [Vinorelbine Tartrate]: 1.7
COc1cc(OC)c(C(=O)CCCN2CCCC2)c(OC)c1 [Buflomedil hydrochloride]: 0.845
CNc1ccc2oc(C[C@H]3O[C@@]4(CC[C@H]3C)O[C@H]([C@H](C)C(=O)c3ccc[nH]3)[C@H](C)C[C@H]4C)nc2c1C(=O)O: 3.31

Exam item: I'd like to know its phenotypic distance. The compound in question is CN1C(=O)[C@@]23C[C@]4([C@]56C[C@@]78SS[C@@](CO)(C(=O)N7[C@H]5Nc5ccccc56)N(C)C8=O)c5ccccc5N[C@@H]4N2C(=O)[C@]1(CO)SS3
Marked response: 7.1

Exam item: I'd like to know its phenotypic distance. The compound in question is Nc1ncn(C2OC(CO)C(O)C2O)c(=O)n1 (stereo not drawn)
Marked response: 1.16

Exam item: I'd like to know its phenotypic distance. The compound in question is Oc1c(Cl)cc(Cl)c(Cl)c1Cc1c(O)c(Cl)cc(Cl)c1Cl
Marked response: 0.903

Exam item: I'd like to know its phenotypic distance. The compound in question is COc1ccc2[nH]c([S+]([O-])Cc3ncc(C)c(OC)c3C)nc2c1 (stereo not drawn)
Marked response: 0.567

Exam item: I'd like to know its phenotypic distance. The compound in question is Nc1nc2n[nH]nc2c(=O)[nH]1
Marked response: 0.95
